ASSAY NOTES: Aqueous solubility of compound by UV spectroscopy
Format: physicochemical
MEASURED PARAMETER: solubility
Remember to put the unit after the number in your answer.

Looking up CN(C)c1ccc(-c2cn(-c3ccc(S(=O)(=O)C4(C(=O)NO)CCOCC4)cc3)nn2)cc1 , I found its solubility recorded as 996 µg/mL

---

Here, each record is paired with measured pIC50 data.
STUDY TARGET: Matrix metalloproteinase-14 (Homo sapiens, UniProt P50281)
ASSAY NOTES: Inhibition of MMP-14 (unknown origin)
Just so you know, pIC50 here is -log10 of the concentration in molar units; reply with that number alone.

Looking up O=C(NO)C1(S(=O)(=O)c2ccc(-n3cc(-c4ccc(-c5ccccc5)cc4)nn3)cc2)CCOCC1 , I found its pIC50 recorded as 7.19

---

ASSAY NOTES: Metabolic stability in cynomolgus monkey assessed as clearance at 3 mg/kg, iv
Format: ADME, organism-based, Macaca fascicularis
CONDITION SET: in vivo
MEASURED PARAMETER: clearance

Looking up CC1(C)NC(=O)N(C[C@@H](COc2ccc(-c3ccc(OC(F)(F)F)cc3)cc2)N(O)C=O)C1=O , I found its clearance recorded as 1.13 mL/min/kg

---

STUDY TARGET: Interstitial collagenase (Homo sapiens, UniProt P03956)
Sequence (P03956 whole entry): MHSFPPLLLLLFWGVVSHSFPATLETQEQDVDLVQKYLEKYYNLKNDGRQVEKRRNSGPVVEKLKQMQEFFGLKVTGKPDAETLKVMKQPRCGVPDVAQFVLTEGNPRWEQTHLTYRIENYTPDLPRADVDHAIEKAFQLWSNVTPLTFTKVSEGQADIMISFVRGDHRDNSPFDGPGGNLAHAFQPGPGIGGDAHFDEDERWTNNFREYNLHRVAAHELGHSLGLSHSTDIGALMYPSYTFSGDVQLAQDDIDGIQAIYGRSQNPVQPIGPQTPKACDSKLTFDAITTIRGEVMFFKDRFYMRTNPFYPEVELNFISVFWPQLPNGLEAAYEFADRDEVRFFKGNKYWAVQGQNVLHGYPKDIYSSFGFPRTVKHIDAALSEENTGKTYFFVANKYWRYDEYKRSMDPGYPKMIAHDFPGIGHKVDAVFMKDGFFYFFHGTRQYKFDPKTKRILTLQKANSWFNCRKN
ASSAY NOTES: Inhibition of MMP-1 (unknown origin) expressed in Escherichia coli BL21(DE3) and measured for 2 mins by enzymatic assay
MEASURED PARAMETER: pIC50
Just so you know, pIC50 here is -log10 of the concentration in molar units; reply with that number alone.

Looking up O=C(NO)C1c2ccc(O)cc2CCN1S(=O)(=O)c1cc(Cl)ccc1Cl (stereo unspecified) , I found its pIC50 recorded as 4.30

---

STUDY TARGET: Interstitial collagenase (Homo sapiens, UniProt P03956)
ASSAY NOTES: Inhibition of MMP-1 (unknown origin) using 7-(methoxycoumarin-4yl)acetyl-Pro-Leu-Gly-Leu-(N-3-[2,4-dinitrophenyl]- L-2,3-diamino-propionyl)-Ala-Arg-NH2 as fluorogenic substrate for 45 mins by fluorogenic analysis
pKi: −log10 of the molar value.
MEASURED PARAMETER: pKi

Tested on Interstitial collagenase (Homo sapiens, UniProt P03956), the item C=C[C@@H]1OC(Cc2ccccc2)=N[C@H]1CO showed pKi equal to < 3.30

---

STUDY TARGET: Matrix metalloproteinase-14 (Homo sapiens, UniProt P50281)
ASSAY NOTES: Inhibition of human MMP-14 expressed in Escherichia coli BL21(DE3) using Mca-Pro-Leu-Gly-Leu-Dpa-Ala-Arg-NH2 as substrate preincubated for 30 mins followed by susbstrate addition by photon-counter spectrophotometer analysis
MEASURED PARAMETER: pKi
Just so you know, pKi here is -log10 of the concentration in molar units; reply with that number alone.

As a guide, the following entries are already answered.
[
  {
    "SMILES REPRESENTATION": "NC(=O)[C@H](CCC(=O)O)NC(=O)[C@@H](CCC(=O)O)NC(=O)CCc1ccc(-c2ccccc2)cc1",
    "STUDY TARGET": "Matrix metalloproteinase-14 (Homo sapiens, UniProt P50281)",
    "pKi": 5.23
  },
  {
    "SMILES REPRESENTATION": "NC(=O)[C@H](CCC(=O)O)NC(=O)[C@@H](CCC(=O)O)NC(=O)CCc1cc(-c2ccc(-c3cccc(Cl)c3)cc2)no1",
    "STUDY TARGET": "Matrix metalloproteinase-14 (Homo sapiens, UniProt P50281)",
    "pKi": 5.69
  }
]

Looking up NC(=O)[C@@H](CCC(=O)O)NC(=O)[C@@H](CCC(=O)O)NC(=O)[C@@H](Cc1cc(-c2ccc(-c3cccc(Cl)c3)cc2)no1)CP(=O)(O)c1ccc(Br)cc1 , I found its pKi recorded as 6.85
